Hello, the source for this data is the kinase profiling compilation of Christmann-Franck et al. (2016), in case you need it.

target: MYLK4 (human) (UniProt Q86YV6); test: KINOMEscan competition binding; conditions: compound 10.0 µM
Sequence (Q86YV6 whole entry, looked up): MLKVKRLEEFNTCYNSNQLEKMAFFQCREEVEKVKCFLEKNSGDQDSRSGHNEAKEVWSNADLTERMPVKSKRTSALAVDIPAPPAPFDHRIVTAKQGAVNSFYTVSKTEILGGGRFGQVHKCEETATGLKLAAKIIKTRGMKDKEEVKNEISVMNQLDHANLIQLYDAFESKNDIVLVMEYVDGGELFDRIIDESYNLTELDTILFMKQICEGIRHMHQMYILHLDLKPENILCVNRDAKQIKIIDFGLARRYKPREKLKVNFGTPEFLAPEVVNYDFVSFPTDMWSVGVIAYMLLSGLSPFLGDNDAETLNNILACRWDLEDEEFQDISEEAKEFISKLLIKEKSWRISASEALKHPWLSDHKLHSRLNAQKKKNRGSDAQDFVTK
outcomeMeasure: kinase still bound, per cent of control (%)
Express it in %; write the number only.

O=c1[nH]c2ccccc2n1C1CCN(Cc2ccc(-c3nc4cc5[nH]cnc5cc4nc3-c3ccccc3)cc2)CC1 :: 64

Incoming: Entry CCN1CCN(Cc2ccc(NC(=O)c3ccc(C)c(/C=C/c4cnc5[nH]ccc5c4OC)c3)cc2C(F)(F)F)CC1 : reported kinase still bound, per cent of control = ?
Outgoing: 23

Incoming: Sample COc1cc(C)c(Sc2cnc(NC(=O)c3ccc(CNC(C)C(C)C)cc3)s2)cc1C(=O)N1CCN(C(C)=O)CC1 (centres undefined) — what was its kinase still bound, per cent of control?
Outgoing: 100

Incoming: Data request, read-out kinase still bound, per cent of control, for N#Cc1cc(-c2ccnc(Nc3ccc(-n4cnc(-c5cccnc5)n4)cc3)n2)cc(N2CCOCC2)c1
Outgoing: 26
